Test system: Mastocarcinoma Cells MCF-7
Assay: In vitro antitumor effect on mastocarcinoma cells MCF-7 (Methylene Blue staining, proliferation inhibition)
Type: cell-based
Details: Homo sapiens, MCF7, 72 h; MCF-7 cells, 3 days culture with test compound, RPMI 1640 with 10% serum, Methylene Blue absorbance; read-out: IC50 value (50% cytostatic concentration)
Method: In Vitro Antitumor Effect on Mastocarcinoma Cells MCF-7 By the use of RPMI 1640 medium (Asahi Tekunogurasu Co., Ltd.) containing 10% serum, 2,000 MCF-7 cells were seeded into a 96-well plate. […] Cells were stained with a 0.05% Methylene Blue solution and absorbance at 660 nm was measured with a microtiter plate reader (Benchmark Plus, mfd. by BIO RAD Laboratories Inc.). […] Proliferation inhibition rate=((absorbance for control group−absorbance for drug-treated group)/absorbance for control group))×100
Assay readout: log10 of IC50 (log10 of the value in µg/mL)
Friendly reminder: values = log10 of IC50, unit µg/mL.

Molecule	log10 of IC50
CC1Cc2nnc(-c3cccc(C(F)(F)F)c3)cc2C(OC(=O)N2CCOCC2)C1.Cl (stereo not shown)	0.64
COCCOC(=O)OC1CC(C)Cc2nnc(-c3cccc(C(F)(F)F)c3)cc21 (stereo not shown)	-0.19
CC1Cc2nnc(-c3cccc(C(F)(F)F)c3)cc2C(OC(=O)COCC(=O)NCCN2CCOCC2)C1 (stereo not shown)	-0.77
CC1Cc2nnc(-c3cccc(C(F)(F)F)c3)cc2C(OC(=O)CCC(=O)O)C1 (stereo not shown)	-0.01
CC1Cc2nnc(-c3cccc(C(F)(F)F)c3)cc2C(OC(=O)COCC(=O)NCc2cccnc2)C1 (stereo not shown)	-0.78

Lab note: measured log10 of IC50 of CC1Cc2nnc(-c3cccc(C(F)(F)F)c3)cc2C(OC(=O)COCC(=O)NCc2ccncc2)C1 (stereo not shown) was -0.86

Lab note: measured log10 of IC50 of CCOCC(=O)OC1CC(C)Cc2nnc(-c3cccc(C(F)(F)F)c3)cc21 (stereo not shown) was -0.87

---

system: Mastocarcinoma Cells MCF-7; experiment: In vitro antitumor effect on mastocarcinoma cells MCF-7 (Methylene Blue staining, proliferation inhibition); format: cell-based; settings: Homo sapiens, MCF7, 72 h; MCF-7 cells, 3 days culture with test compound, RPMI 1640 with 10% serum, Methylene Blue absorbance; read-out: IC50 value (50% cytostatic concentration)
Assay readout: IC50 (µg/mL)
Numeric only. Scale: µg/mL

Consider the worked cases shown below.
Compound	IC50 / µg/mL
CC1Cc2nnc(-c3cccc(C(F)(F)F)c3)cc2C(OC(=O)CCC(=O)NCc2ccncc2)C1 (centres unmarked)	0.144
CC1Cc2nnc(-c3cccc(C(F)(F)F)c3)cc2C(OC(=O)CCCN(C)C)C1 (centres unmarked)	0.129
CCOC(=O)CCC(=O)OC1CC(C)Cc2nnc(-c3cccc(C(F)(F)F)c3)cc21 (centres unmarked)	0.736

Could you now look at the following compound, please?
Lab note: measured IC50 of CC1Cc2nnc(-c3cccc(C(F)(F)F)c3)cc2C(OC(=O)CCC(=O)NCCN2CCOCC2)C1 (centres unmarked) was 0.128

---

Entries and their IC50
system: Mastocarcinoma Cells MCF-7; experiment: In vitro antitumor effect on mastocarcinoma cells MCF-7 (Methylene Blue staining, proliferation inhibition); assay type: cell-based; settings: Homo sapiens, MCF7, 72 h; MCF-7 cells, 3 days culture with test compound, RPMI 1640 with 10% serum, Methylene Blue absorbance; read-out: IC50 value (50% cytostatic concentration)
Give the number first and the unit second.

Compound	Assay system	Assay readout	Meas value
COC(=O)CCC(=O)OC1CC(C)Cc2nnc(-c3cccc(C(F)(F)F)c3)cc21 (stereo not shown)	Mastocarcinoma Cells MCF-7	IC50	1.18 µg/mL
CC1Cc2nnc(-c3cccc(C(F)(F)F)c3)cc2C(OC(=O)CCC(=O)NCc2cccnc2)C1 (stereo not shown)	Mastocarcinoma Cells MCF-7	IC50	0.098 µg/mL
CC1Cc2nnc(-c3cccc(C(F)(F)F)c3)cc2C(OC(=O)CCCC(=O)O)C1 (stereo not shown)	Mastocarcinoma Cells MCF-7	IC50	0.908 µg/mL

Lab note: measured IC50 of CC1Cc2nnc(-c3cccc(C(F)(F)F)c3)cc2C(OC(=O)COCC(=O)O)C1 (stereo not shown) was 0.148 µg/mL
